The values you see were collected from patent US20250027068A1.

# maps each entry to its Enzyme Activity Endpoint Assay (purified): IgG
- target or system: pooled human IgG (human); further: test concentration or dose not given here
- test summary: cell-based or functional assay
property measured: Enzyme Activity Endpoint Assay (purified): IgG

{"binder": "PRT-194 (enzyme) MANQEIRYSEVTPYHVTSVWTKGVTPPDHDFANFTQGEDVFHAPYVANQGWYDITKTFNGKDDLLCGAATAGNMLHWWFDQNKDQIKRYLEEHPEKQKINFNGEQMFDVKEAIDTKNHQLDSKLFEYFKEKAFPYLSTKHLGVFPDHVIDMFINGYRLSLTNHGPTPVKEGSKDPRGGIFDAVFTRGDQSKLLTSRHDFKEKNLKEISDLIKKELTEGKALGLSHTYANVRHSINHVINLWGADFDSNGNLKAIYVTDSDDKKLTISNASIGMKKYFVGVNSAGKVAISAKEIKEDNIGAQVLGLFTLSTGQDSWNQTN", "result": "301 ng/µL"}
{"binder": "PRT-197 (enzyme) MEVVEVWPYGQNPNGKTEILSQTEDSESLQRLRDIEDFQAEKKMQNVVYTKWLDGVDVKDHDFRKIVDGNIAYYATPLLNGRGFYDINKDFNRDSDKCAAAVAANMFHYWLDINRDNVDRFLRQNPEKHGIIELPDGQLKLSDFLNTYESDHGYRDKSKLFDFISNNFNGPVWTDKLLDNYINGYAYNYKYGRTIEDPTKNTSKINFFKEVFNEKILTNNHSIRNQNEFSDLLSEALYTGKAIGLSYGPAGLRHSLGHIISVWGADLDADGNVVAIYVTDSDDKKLTIGDERVGLKRYKISTDDENRARLTAYEETDNTGGQIRGLYTLDTGKQAWADYFDKTEQTGTDQAEQLEHHHHHH", "result": "1800 ng/µL"}
{"binder": "PRT-210 (enzyme) MEVVEVWPYGQNPNGKTEILSQTEDSESLQRLRDIEDFQAEKKKQNVVYTKWLDGVTVDDHDFRKITDGNTAYYATPLLNGRGFYDINKDFNRDSDKCAAAVAANMFHYWLDQNRDNVDRFLKQNPEKHGIIELPDGQLKLSDFLNTYESDDGYRDKSKLFDFISNNFNGPVWTDKLLDNYINGYAYNYKYGRTIEDPTKNTSKINFFKEVFNEKLLTNNHSIRNQNEFSDLLSEALYTGKAIGLSYGPAGLRHSLGHIISVWGADFDADGNVVAIYVTDSDDKKLTIGDERVGLKRYKISSDDEGRARLTAYTEKHNTGGQIRGLYTLDTGKQEWADYFDKTEQTGTDQAEQLEHHHHHH", "result": "1780 ng/µL"}
{"binder": "PRT-204 (enzyme) MEVVEVWPYGQNPNGKTEILSQTEDSESLQRLRDIEDFQAEKKMQNVVYTKWLDGVTVKDHDFRKIVDGNIAYYATPLLNGRGFYDINKDFNRDSDKCAAAVAANMFHYWLDRNRDNVDRFLSQNPEKHGIIELPDGQLKLSDFLNTYESDNGYRDKSKLFDFISNNFNGPVWTDKLLDNYINGYAYNYKYGRTIEDPTKNTSKINFFKEVFNEKILTNIHSIRNQNEFSDLLSEALYTGKAIGLSYGPAGLRHSLGHIISVWGADLDADGNVVAIYVTDSDDKKLTIGDERVGLKRYKISTDDEGRARLTAYEETDNTGGQIRGLETLDTGKYAWADYFDKTEQTGTDQAEQLEHHHHHH", "result": "2260 ng/µL"}
